Taken from patent US20210355104A1.

- MEASURED_TARGET: Adenosine A2A receptor (Homo sapiens, UniProt P29274)
- Sequence (P29274 whole entry): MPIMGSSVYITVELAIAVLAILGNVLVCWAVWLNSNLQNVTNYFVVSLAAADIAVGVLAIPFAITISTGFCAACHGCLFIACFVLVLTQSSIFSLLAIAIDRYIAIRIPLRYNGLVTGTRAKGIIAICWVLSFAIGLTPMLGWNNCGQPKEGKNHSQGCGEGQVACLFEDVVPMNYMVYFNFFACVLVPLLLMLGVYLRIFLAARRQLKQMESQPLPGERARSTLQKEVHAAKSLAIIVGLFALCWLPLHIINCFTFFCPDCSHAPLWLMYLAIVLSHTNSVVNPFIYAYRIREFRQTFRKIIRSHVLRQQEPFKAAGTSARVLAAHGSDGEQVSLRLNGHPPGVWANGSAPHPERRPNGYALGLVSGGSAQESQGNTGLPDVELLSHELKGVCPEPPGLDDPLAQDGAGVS
- TEST_SUMMARY: Adenosine A2A receptor competitive binding assay (Tag-lite HTRF)
- TEST_CONTEXT: Tag-lite adenosine A2A receptor ligand binding, 2 h room temperature; values separated by / are repeat determinations
pIC50: −log10 of the molar value.
READOUT_LABEL: pIC50

MOLECULE: Cc1cc(-c2c(OCC(O)C(C)(C)O)nc(N)nc2-c2ccc(F)cc2)cc(C(F)F)n1 (stereo not drawn)
MEASURED_TARGET: Adenosine A2A receptor (Homo sapiens, UniProt P29274)
pIC50: < 6.00

MOLECULE: Cc1cc(-c2c(OCC3(O)CCOCC3)nc(N)nc2-c2ccc(F)cc2)cc(C(F)F)n1
MEASURED_TARGET: Adenosine A2A receptor (Homo sapiens, UniProt P29274)
pIC50: < 6.00

// moving on: another record for pIC50
Enquiry: Give the value of pIC50 reported for the following: Cc1cc(-c2c(OCC(=O)O)nc(N)nc2-c2ccc(F)cc2)cc(C(F)F)n1
Return: < 6.00

---

- MEASURED_TARGET: Adenosine A2A receptor (Homo sapiens, UniProt P29274)
- TEST_SUMMARY: Adenosine A2A receptor competitive binding assay (Tag-lite HTRF)
- TEST_CONTEXT: Tag-lite adenosine A2A receptor ligand binding, 2 h room temperature; values separated by / are repeat determinations
READOUT_LABEL: IC50 (nM)

Previously resolved entries follow.
MOLECULE: Cc1cc(-c2c(OCC(O)CCO)nc(N)nc2-c2ccc(F)cc2)cc(C(F)F)n1 (stereo not shown) [Example 81]
READOUT_LABEL: IC50
REPORTED: 5.6
--
MOLECULE: Cc1cc(-c2c(OCC(C)(C)C(=O)O)nc(N)nc2-c2ccc(F)cc2)cc(C(F)F)n1 [Example 61]
READOUT_LABEL: IC50
REPORTED: 280
--
MOLECULE: COC(=O)N1CCN(CCOc2nc(N)nc(-c3ccc(F)cc3)c2-c2cc(C)nc(C(F)F)c2)CC1 [Example 51]
READOUT_LABEL: IC50
REPORTED: 10
--
MOLECULE: Cc1cc(-c2c(OCc3cccc(CO[C@H]4CCOC4)n3)nc(N)nc2-c2ccccc2)cc(C(F)(F)F)n1 [Example 5]
READOUT_LABEL: IC50
REPORTED: 8.97
--
MOLECULE: CCN(CC)C(=O)COc1nc(N)nc(-c2ccco2)c1-c1cc(C)nc(C(F)(F)F)c1 [Example 11]
READOUT_LABEL: IC50
REPORTED: 7.21

P = Cc1cc(-c2c(OCCN3CCN(c4ccc(S(C)(=O)=O)cc4)CC3)nc(N)nc2-c2ccc(F)cc2)cc(C(F)F)n1 [Example 56]
Q = CCN(CCOc1nc(N)nc(-c2ccc(F)cc2)c1-c1cc(C)nc(C(F)F)c1)C(=O)NC [Example 124]
Enquiry: // returns P or Q , whichever has the lower IC50 Answer with the label corresponding to your selection.
Return: Q

---

- MEASURED_TARGET: Adenosine A2A receptor (Homo sapiens)
- TEST_SUMMARY: cAMP assay in 293A cells stably expressing the adenosine A2A receptor (CGS21680 stimulation, HTRF)
- Type: cell-based
- Set-up: expressed in transfected cells; host or cells: 293A cells (Invitrogen, Cat# R705-07) infected with A2A-expressing lentivirus (custom packaged by Biosettia), puromycin selected
- TEST_CONTEXT: 293A-A2AR cells, 0.1% BSA, 1 uM CGS; values separated by / are repeat determinations; read-out: cAMP (nM) 0.1% BSA, 1 uM CGS
READOUT_LABEL: IC50 (nM)

P = Cc1cc(-c2c(OCc3cccc(=O)n3C(C)C)nc(N)nc2-c2ccc(F)cc2)cc(C(F)F)n1 [Example 186]
Q = CCNCCOc1nc(N)nc(-c2ccc(F)cc2)c1-c1cc(C)nc(C(F)F)c1 [Example 65]
Enquiry: Recorded IC50 values differ for P and Q ; which one is higher? Answer with the label corresponding to your selection.
Return: P

I = Cc1cc(-c2c(OCCN(C)c3ccccn3)nc(N)nc2-c2ccc(F)cc2)cc(C(F)F)n1 [Example 79]
II = Cc1cc(-c2c(OCCN(C)c3ncccn3)nc(N)nc2-c2ccc(F)cc2)cc(C(F)F)n1 [Example 145]
Enquiry: Recorded IC50 values differ for I and II ; which one is higher? Answer with the label corresponding to your selection.
Return: II
(II: 123 nM, I: 1 nM)

I = CCc1c(COc2nc(N)nc(-c3ccc(F)cc3)c2-c2cc(C)nc(C(F)F)c2)nnn1CC [Example 135]
II = Cc1cc(-c2c(OCc3ccccn3)nc(N)nc2-c2ccc(F)cc2)cc(C(F)F)n1 [Example 95]
Enquiry: // returns I or II , whichever has the lower IC50 Answer with the label corresponding to your selection.
Return: II
(II: 12 nM, I: 77 nM)

---

- MEASURED_TARGET: Adenosine A2A receptor (Homo sapiens, UniProt P29274)
- TEST_SUMMARY: Adenosine A2A receptor competitive binding assay (Tag-lite HTRF)
- TEST_CONTEXT: Tag-lite adenosine A2A receptor ligand binding, 2 h room temperature; values separated by / are repeat determinations
READOUT_LABEL: IC50 (nM)

A = Cc1cc(-c2c(OCCCS(C)(=N)=O)nc(N)nc2-c2ccc(F)cc2)cc(C(F)F)n1 (stereo not drawn)
B = Cc1cc(-c2c(C(=O)NCc3cccc(C4CC4)n3)nc(N)nc2-c2ccc(F)cc2)cc(C(F)F)n1
C = Cc1cc(-c2c(OCC(=O)NCC(F)(F)F)nc(N)nc2-c2ccc(F)cc2)cc(C(F)F)n1
Enquiry: Lab note: rank above entries, IC50 ascending. Present the labels in the sequence the task asks for.
Return: A, C, B

---

- MEASURED_TARGET: Adenosine A2A receptor (Homo sapiens)
- TEST_SUMMARY: Adenosine A2A receptor competitive binding assay (Tag-lite HTRF)
- TEST_CONTEXT: Tag-lite adenosine A2A receptor ligand binding, 2 h room temperature; values separated by / are repeat determinations
READOUT_LABEL: IC50 (nM)

Previously resolved entries follow.
MOLECULE: COCCOc1ccc(N2CCN(CCOc3nc(N)nc(-c4ccc(F)cc4)c3-c3cc(C)nc(C(F)F)c3)CC2)cc1 [Example 53]
MEASURED_TARGET: Adenosine A2A receptor (Homo sapiens)
UNIT: nM
IC50: 13
//
MOLECULE: Cc1cc(-c2c(O[C@@H](C)CO)nc(N)nc2-c2ccc(F)cc2)cc(C(F)F)n1 [Example 76]
MEASURED_TARGET: Adenosine A2A receptor (Homo sapiens)
UNIT: nM
IC50: 19
//
MOLECULE: Cc1cc(-c2c(OCC(=O)Nc3ccccn3)nc(N)nc2-c2ccc(F)cc2)cc(C(F)F)n1 [Example 107]
MEASURED_TARGET: Adenosine A2A receptor (Homo sapiens)
UNIT: nM
IC50: 44
//
MOLECULE: CCN(CC)C(=O)OCc1nc(N)nc(-c2ccccc2)c1-c1cc(C)nc(C(F)(F)F)c1 [Example 21]
MEASURED_TARGET: Adenosine A2A receptor (Homo sapiens)
UNIT: nM
IC50: 111
//
MOLECULE: CC(=O)N1CCN(c2ccc(CCOc3nc(N)nc(-c4ccccc4)c3-c3cc(C)nc(C(F)(F)F)c3)cc2)CC1 [Example 20]
MEASURED_TARGET: Adenosine A2A receptor (Homo sapiens)
UNIT: nM
IC50: 26.6
//
MOLECULE: Cc1cc(-c2c(OCCN(C)c3ccccn3)nc(N)nc2-c2ccc(F)cc2)cc(C(F)F)n1 [Example 79]
MEASURED_TARGET: Adenosine A2A receptor (Homo sapiens)
UNIT: nM
IC50: 0.51

A = Cc1cc(-c2c(OC[C@H](O)CO)nc(N)nc2-c2ccc(F)cc2)cc(C(F)F)n1 [Example 86]
B = CNS(=O)(=O)NCCOc1nc(N)nc(-c2ccc(F)cc2)c1-c1cc(C)nc(C(F)F)c1 [Example 115]
Enquiry: // returns A or B , whichever has the lower IC50 Answer with the label corresponding to your selection.
Return: A
(A: 13 nM, B: 19 nM)

P = CNC(=O)COc1nc(N)nc(-c2ccc(F)cc2)c1-c1cc(C)nc(C(F)F)c1 [Example 32]
Q = CCOC(=O)NCc1nc(N)nc(-c2ccccc2)c1-c1cc(C)nc(C(F)(F)F)c1 [Example 63]
Enquiry: Recorded IC50 values differ for P and Q ; which one is higher? Answer with the label corresponding to your selection.
Return: Q

a = Cc1cc(-c2c(OCCN(C)c3ccccc3)nc(N)nc2-c2ccc(F)cc2)cc(C(F)F)n1 [Example 87]
b = CCN(CC)C(=O)[C@@H](C)Oc1nc(N)nc(-c2ccccc2)c1-c1cc(C)nc(C(F)(F)F)c1 [Example 13]
c = Cc1cc(-c2c(CNC(=O)N(C)C)nc(N)nc2-c2ccc(F)cc2)cc(C(F)F)n1 [Example 78]
d = Cc1cc(-c2c(OCCNS(N)(=O)=O)nc(N)nc2-c2ccccc2)cc(C(F)(F)F)n1 [Example 112]
Enquiry: Falling order of IC50, please. Present the labels in the sequence the task asks for.
Return: b, a, c, d
